system: SR leukemia; assay: NCI tumour cell line growth inhibition, 48 h

COMPOUND	TGI
CSc1c(C#N)c(S)n(-c2ccc(Cl)cc2)c(=O)c1C#N	> 100 µM
COc1ccc(-c2[nH]c3ccccc3c2/C=C(\C#N)S(=O)(=O)c2ccccc2)cc1	4.9 µM
CSc1nc2c3ccccc3ccn2c1C(=O)N/N=C/c1ccccc1	> 100 µM
COc1cc(/C=C/C(=O)O[C@H]2[C@H](O[C@@H]3O[C@@H](C)[C@H](O)[C@@H](O)[C@H]3O)[C@@H](O)[C@H](OCCc3ccc(O)c(O)c3)O[C@@H]2COC2OCC(O)(CO)C2O)ccc1O (stereo partly drawn)	> 100 µM
O=C1/C(=C/c2ccccc2O)N=C(c2ccccc2)N1c1cc(C(F)(F)F)ccc1Cl	> 100 µM
CN(C)c1nc(N)c(C#N)c(C#N)c1C#N	> 10 µM
O=[N+]([O-])/C=C/c1cn(CCCCCCCCCCCCn2cc(/C=C/[N+](=O)[O-])c3ccccc32)c2ccccc12	> 100 µM
O=C(Cc1ccccc1)C(c1ccccc1)S(=O)(=O)c1ccccc1 (stereo not drawn)	> 100 µM
CN1CCC/C1=C1/C(=O)N(c2ccccc2)N=C1c1ccc[nH]1	> 100 µM
O=C(CC(=O)c1ccccc1)C(=O)Nc1ccc(Cl)cc1	> 100 µM
CCCCN(C)C(=O)C1=C(C)NC(C)=C(C(=O)N(C)CCCC)C1	> 100 µM
COCCOCCOCCOCCOC(=O)OC[n+]1ccc(NC(=NCCCCCCOc2ccc(Cl)cc2)NC#N)cc1	> 45.6 µM
C[C@H]1CN(C2COC2)CCN1c1ccc(Nc2cc(-c3ccnc(N4CCn5c(cc6c5CC(C)(C)C6)C4=O)c3CO)cn(C)c2=O)nc1	> 100 µM
N#Cc1cc2c(cc1Cl)Sc1nnc(Nc3cccc4ccccc34)n1S2(=O)=O	7.82 µM
Cc1cc2c(c(=O)o1)C1=S(SC(c3ccccc3)=C1)S2 (stereo not drawn)	38.5 µM
COc1cc2c(cc1NC(=O)C(Cl)Cl)-c1ccc(NC(=O)C(Cl)Cl)cc1C2	24.2 µM
COc1ccc(C2CC(c3ccc(N(C)C)cc3)=NN2c2ccc(S(N)(=O)=O)cc2)cc1 (stereo not drawn)	> 100 µM
C[C@H]1C(=O)c2c(cc(O)c(C3OC(CO)C(O)C(O)C3O)c2O)OC1c1ccc(O)c(O)c1 (stereo partly drawn)	> 100 µM

----------
tested on: MDA-N; assay: NCI tumour cell line growth inhibition, 48 h
The molecules listed here are annotated with their TGI.

MOLECULE	TGI
CC(=O)N(CC(=O)C(=O)NNc1ccoc1)c1ccc(Cl)cc1	> 100 µM
c1n[nH]cc1C12C3C4C5C3C1C5C42 (stereo not given)	> 100 µM
BrCc1ccc(CBr)c2c1-c1c(CBr)ccc3ccc(CBr)c-2c13	> 100 µM
O=c1[nH]c(=O)n(C2C(CO)OC(CO)C2O)cc1F (stereo not given)	> 100 µM
Nc1[nH]c(=O)[nH]c(=O)c1Cc1cccc(Cl)c1	> 100 µM
COc1ccccc1C1c2cc3c(cc2OC(N2CCCC2)C1C)OCO3 (stereo not given)	28.9 µM
Cc1ccc(S(=O)(=O)N2CCN(S(=O)(=O)c3ccc(C)cc3)CCN(S(=O)(=O)c3ccc(C)cc3)Cc3cc(Br)c(Br)cc3CN(S(=O)(=O)c3ccc(C)cc3)CC2)cc1	> 100 µM
O=c1[nH]c2ccccc2n1C1CCN(CCCC(c2ccc(F)cc2)c2ccc(F)cc2)CC1	21.4 µM
CC1=NNC(=S)NCCCN2CCN(CCCNC(=S)NN=C(C)C=NNC(=S)NCCCN3CCN(CCCNC(=S)NN=C1)CC3)CC2	> 100 µM
CN1CCC/C1=C1/C(=O)N(c2ccccc2)N=C1c1ccc[nH]1	> 100 µM

Where these numbers come from: PubChem BioAssay (NCI)
